- ASSAYED TARGET: ScLsb3
- ASSAY PROCEDURE: SPOT peptide array binding signal intensity (averaged, normalized) (arbitrary units (background-subtracted, floor 0; scale differs between SH3 domains)); higher = stronger binding of the SH3 domain to the peptide
Decision: SPOT peptide array binding signal intensity compared against 1000; not below it gives yes (1), below it gives no (0).

Below, 5 binders whose answers are already recorded.
>>> print(df.to_string())
            binder  assigned_label
0  VPPVPLPFGIPPFPM          no (0)
1  GKKVRPLLVLLLSRA          no (0)
2  TSFKGRPKPPKTLKH          no (0)
3  IFLRISINFPLNYPN         yes (1)
4  LYKRKPILLPDPKPL          no (0)

Form field: SPOT peptide array binding signal intensity at least 1000? Entry: "SSAAPPPPPRRATPE"
yes (1)

hey, is SPOT peptide array binding signal intensity for this one >= 1000? "QDKEGIPPDQQRLIF"
no (0)

Exam item: decide whether the reported SPOT peptide array binding signal intensity for "VGFRLALKFPSRITG" is at least 1000.
yes (1)

Determine whether measured SPOT peptide array binding signal intensity meets or exceeds 1000 for "TPRLSLPRLPNKHHW"
yes (1)

Hello, I need to know if "IVNKPLPPLPVAGSS" has measured SPOT peptide array binding signal intensity not below 1000. Thanks!
no (0)

Dear colleague, could you confirm whether "IRMPSNPALPKKLLN" has SPOT peptide array binding signal intensity at or above 1000?
no (0)

Does the reported SPOT peptide array binding signal intensity for "TSIEIPKRSPLRFTS" fall at or above the 1000 mark?
no (0)

Entry "EAEEAAPQLPSRSSA" : is its SPOT peptide array binding signal intensity no less than 1000?
yes (1)

Please tell me: is the binder "LPMNIQPDLPPRKIM" at or over 1000 in terms of SPOT peptide array binding signal intensity?
yes (1)

Check this binder for SPOT peptide array binding signal intensity at or above 1000: "SNRRPVPRRPSQPLN"
yes (1)

Please tell me: is the binder "TTNRGPPPLPPRANV" at or over 1000 in terms of SPOT peptide array binding signal intensity?
yes (1)

Does SPOT peptide array binding signal intensity meet or surpass 1000 for "GSKSGPPPRPKKPST" ?
yes (1)

Dear colleague, could you confirm whether "NLKKRPPTAPQRKIS" has SPOT peptide array binding signal intensity at or above 1000?
yes (1)

For this binder, is measured SPOT peptide array binding signal intensity 1000 or higher? "RPVPPPPPMRTTTEG"
yes (1)

Quick check, SPOT peptide array binding signal intensity >= 1000? "NSMRPPLLIPAATTK"
no (0)

Has "ISRRRLPVIMHRLKM" a recorded SPOT peptide array binding signal intensity greater than or equal to 1000?
yes (1)

Check this binder for SPOT peptide array binding signal intensity at or above 1000: "PPPPPPPPPPLPQSL"
no (0)
